The reported measurements were obtained from the kinase profiling compilation of Christmann-Franck et al. (2016).

kinase still bound, per cent of control listing for selected molecules.
test system: UniProtKB Q15349
Sequence (Q15349 whole entry, looked up): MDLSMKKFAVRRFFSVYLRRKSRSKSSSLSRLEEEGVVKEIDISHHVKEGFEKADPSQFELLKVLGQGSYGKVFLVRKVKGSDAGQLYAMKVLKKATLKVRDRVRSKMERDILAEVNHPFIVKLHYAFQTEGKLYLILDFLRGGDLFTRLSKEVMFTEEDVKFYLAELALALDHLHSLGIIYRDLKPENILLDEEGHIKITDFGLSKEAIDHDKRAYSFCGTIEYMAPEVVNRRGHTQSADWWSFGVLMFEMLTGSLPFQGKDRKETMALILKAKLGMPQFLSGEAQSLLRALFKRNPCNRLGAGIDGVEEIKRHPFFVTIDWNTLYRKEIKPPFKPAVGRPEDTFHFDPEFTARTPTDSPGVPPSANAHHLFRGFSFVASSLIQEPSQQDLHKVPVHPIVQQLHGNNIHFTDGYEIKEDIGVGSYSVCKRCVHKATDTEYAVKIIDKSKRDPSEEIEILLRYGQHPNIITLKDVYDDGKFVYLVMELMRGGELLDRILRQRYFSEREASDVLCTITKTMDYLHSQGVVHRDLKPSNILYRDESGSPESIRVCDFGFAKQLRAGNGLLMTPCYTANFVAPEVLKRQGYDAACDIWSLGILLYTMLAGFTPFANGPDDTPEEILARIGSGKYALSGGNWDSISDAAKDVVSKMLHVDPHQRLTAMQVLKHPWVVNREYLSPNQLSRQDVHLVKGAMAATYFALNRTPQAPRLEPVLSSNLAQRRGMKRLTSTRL
assay info: KINOMEscan competition binding
measurement parameters: compound 10.0 µM

test smiles: CC(C)n1nc(-c2cc3cc(O)ccc3[nH]2)c2c(N)ncnc21
test system: UniProtKB Q15349
kinase still bound, per cent of control [%]: 62

test smiles: COC(=O)Nc1ccc(-c2nc(N3CCOCC3)c3cnn(C4CCN(C(=O)OC)CC4)c3n2)cc1
test system: UniProtKB Q15349
kinase still bound, per cent of control [%]: 100

test smiles: COc1ccc(-c2ccc3c(N4CCOCC4)nc(N4C[C@@H](C)O[C@@H](C)C4)nc3n2)cc1CO
test system: UniProtKB Q15349
kinase still bound, per cent of control [%]: 94

test smiles: CCC(=O)N1CCN(c2ccc(-n3c(=O)ccc4cnc5ccc(-c6cnc7ccccc7c6)cc5c43)cc2C(F)(F)F)CC1
test system: UniProtKB Q15349
kinase still bound, per cent of control [%]: 85
